Source listed as patent US12486267B2.

# target.of.assay: human TLR9 (Homo sapiens, UniProt Q9NR96)
# Sequence (Q9NR96 26-1032): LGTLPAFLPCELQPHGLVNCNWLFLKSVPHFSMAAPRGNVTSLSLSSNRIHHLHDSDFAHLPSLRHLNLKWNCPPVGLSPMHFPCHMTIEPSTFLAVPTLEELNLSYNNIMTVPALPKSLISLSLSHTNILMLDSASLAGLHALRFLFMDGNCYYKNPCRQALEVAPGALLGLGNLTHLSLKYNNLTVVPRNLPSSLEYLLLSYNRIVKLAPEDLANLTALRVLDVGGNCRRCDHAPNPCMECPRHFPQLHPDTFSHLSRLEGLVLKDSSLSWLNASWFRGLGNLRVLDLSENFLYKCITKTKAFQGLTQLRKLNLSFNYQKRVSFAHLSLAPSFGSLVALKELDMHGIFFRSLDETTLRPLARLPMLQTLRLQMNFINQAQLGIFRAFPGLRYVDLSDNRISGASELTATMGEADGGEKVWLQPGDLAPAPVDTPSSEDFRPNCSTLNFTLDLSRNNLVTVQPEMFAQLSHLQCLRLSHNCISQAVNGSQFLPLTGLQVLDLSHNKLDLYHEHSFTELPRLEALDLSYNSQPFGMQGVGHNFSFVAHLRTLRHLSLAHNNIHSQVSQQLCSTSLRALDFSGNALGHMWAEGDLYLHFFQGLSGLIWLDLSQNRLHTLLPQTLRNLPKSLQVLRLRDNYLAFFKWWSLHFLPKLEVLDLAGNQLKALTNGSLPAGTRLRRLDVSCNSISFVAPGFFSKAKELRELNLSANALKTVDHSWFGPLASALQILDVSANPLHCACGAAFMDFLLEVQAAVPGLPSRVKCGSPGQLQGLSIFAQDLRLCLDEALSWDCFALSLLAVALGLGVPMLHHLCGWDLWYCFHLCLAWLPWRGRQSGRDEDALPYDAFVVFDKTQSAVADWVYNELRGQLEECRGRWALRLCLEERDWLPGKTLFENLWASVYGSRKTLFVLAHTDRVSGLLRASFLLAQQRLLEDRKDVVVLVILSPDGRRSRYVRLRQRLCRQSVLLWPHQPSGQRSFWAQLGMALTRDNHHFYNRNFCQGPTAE
# protocol.notes: TLR9 inhibition reporter assay (HEK-Blue cells, SEAP reporter)
# conditions: HEK-Blue cells overexpressing human TLR9; stimulated with ODN2006 5 nM; 22 hour incubation; SEAP readout
Examples of compounds with documented pIC50 follow.
Convention used: pIC50 is expressed as -log10 of the molar concentration.

See these solved cases before continuing.
Cc1cc(-c2ccc(N3CC4CCC(C3)N4C(C)C)cc2)cn2nc(-c3ccc(S(C)(=O)=O)cc3)nc12
6.18
COc1ccc(-c2cn3c(n2)CCC(C2CCN(C4CCN(C5CC5)CC4)CC2)C3)cc1OC (single isomer, unassigned) [Example 37]
7.21
CC(C)N1CCCC(N2CCC(c3cc(F)c4nc(-c5ccc(S(C)(=O)=O)cc5)cn4c3)CC2)CC1 (single isomer, unassigned) [Example 71]
7.41

Could you now look at the following compound, please?
Ask: Provide pIC50 value for the following compound: Cc1cc(C2CCN(C3CCN(C4CCC4)CC3)CC2)cn2cc(-c3ccc(S(C)(=O)=O)cc3)nc12
Reply: 7.72

====

Listed here: items and their measured pIC50.
# target.of.assay: human TLR9 (Homo sapiens, UniProt Q9NR96)
# Sequence (Q9NR96 26-1032): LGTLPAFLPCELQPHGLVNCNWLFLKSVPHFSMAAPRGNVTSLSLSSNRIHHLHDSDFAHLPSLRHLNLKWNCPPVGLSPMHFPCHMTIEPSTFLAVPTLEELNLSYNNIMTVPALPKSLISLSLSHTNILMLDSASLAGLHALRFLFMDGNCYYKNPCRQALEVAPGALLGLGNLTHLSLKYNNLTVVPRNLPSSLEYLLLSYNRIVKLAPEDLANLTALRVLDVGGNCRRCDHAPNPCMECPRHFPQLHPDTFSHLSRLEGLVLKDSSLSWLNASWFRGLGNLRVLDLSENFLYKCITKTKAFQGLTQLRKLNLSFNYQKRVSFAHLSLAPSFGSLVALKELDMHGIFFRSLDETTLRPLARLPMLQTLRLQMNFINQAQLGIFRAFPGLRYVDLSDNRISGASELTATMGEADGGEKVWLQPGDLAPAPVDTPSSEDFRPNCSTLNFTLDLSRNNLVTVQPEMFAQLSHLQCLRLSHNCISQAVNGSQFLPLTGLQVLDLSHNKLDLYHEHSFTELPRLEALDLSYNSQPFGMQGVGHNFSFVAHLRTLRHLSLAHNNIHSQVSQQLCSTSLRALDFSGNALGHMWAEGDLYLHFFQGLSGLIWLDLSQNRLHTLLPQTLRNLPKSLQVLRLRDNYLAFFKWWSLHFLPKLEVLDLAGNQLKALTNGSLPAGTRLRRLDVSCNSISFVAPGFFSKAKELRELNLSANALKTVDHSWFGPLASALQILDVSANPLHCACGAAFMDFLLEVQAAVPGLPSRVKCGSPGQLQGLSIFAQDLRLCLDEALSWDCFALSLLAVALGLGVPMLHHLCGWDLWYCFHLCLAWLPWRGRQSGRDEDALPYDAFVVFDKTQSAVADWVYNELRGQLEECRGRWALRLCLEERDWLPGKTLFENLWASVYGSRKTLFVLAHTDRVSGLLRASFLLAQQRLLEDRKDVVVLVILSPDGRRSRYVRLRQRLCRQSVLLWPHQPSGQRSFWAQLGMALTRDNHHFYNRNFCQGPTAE
# protocol.notes: TLR9 inhibition reporter assay (HEK-Blue cells, SEAP reporter)
# conditions: HEK-Blue cells overexpressing human TLR9; stimulated with ODN2006 5 nM; 22 hour incubation; SEAP readout
Reminder that pIC50 means the negative base-10 logarithm of the concentration expressed in mol/L.

Record excerpt, results attached:
COc1ccc(-c2cn3cc(C4C[C@H]5CC[C@@H](C4)N5C4CCN(C5CC5)CC4)cc(C)c3n2)cc1OC (mixture of isomers) [Example 24]
6.99
CC(C)N1CCC(N2CCC(c3ccn4cc(-c5ccc(S(C)(=O)=O)cc5)nc4c3F)CC2)CC1 [Example 132]
6.52
COc1ccc(-c2cn3cc(C4CCN(C5CC6(C5)CN(C(C)C)C6)CC4)cc(C)c3n2)cc1OC [Example 13]
6.79

Now look at this entry.
Ask: Let me know recorded pIC50 for COc1ccc(-c2nc3c(C)cc(C4CCN(C5CCN(C(C)C)CC5)CC4)cn3n2)cc1OC [Example 158] , thanks.
Reply: 6.82
